Test system: Caenorhabditis elegans N2 infected with Nematocida parisii ERTm1
Experiment: progeny production relative to DMSO uninfected control; higher = more progeny despite microsporidia infection (inhibition of infection with low host toxicity)
Settings: infection time 6 days; 40 µM
REPORTED ENDPOINT: progeny production (%)
Numbers only here, please. The scale is %.

Inquiry: What does the record list as progeny production for CC(=O)N1c2ccccc2NC2=C(C(=O)CC(C)(C)C2)C1c1ccc(OCc2ccccc2)cc1 (centres undefined) ?
Reply text: 4.92

Inquiry: What does the record list as progeny production for CCc1nc2ccc(Cl)cn2c1C(=O)NCc1ccc(N2CCC(c3ccc(OC(F)(F)F)cc3)CC2)cc1 ?
Reply text: 4.78

Inquiry: What does the record list as progeny production for CC[C@H](NC(=O)[C@H](C)NC)C(=O)N1C[C@@H](O)C[C@H]1Cc1c(-c2[nH]c3cc(F)ccc3c2C[C@@H]2C[C@H](O)CN2C(=O)[C@H](CC)NC(=O)[C@H](C)NC)[nH]c2cc(F)ccc12 ?
Reply text: 6.99

Inquiry: What does the record list as progeny production for Cc1nc2ccc(Cl)cc2c(-c2ccccc2)c1CC(=O)O ?
Reply text: 6.84

###

System: Caenorhabditis elegans N2 infected with Nematocida parisii ERTm1
Assay: progeny production relative to DMSO uninfected control; higher = more progeny despite microsporidia infection (inhibition of infection with low host toxicity)
Conditions: infection time 6 days; 40 µM
Threshold check on progeny production: at or above 5% gives Y, strictly below gives N.

Inquiry: # check: progeny production of COc1nc2ccc(Br)cc2cc1[C@@H](c1ccccc1)[C@@](O)(CCN(C)C)c1cccc2ccccc12 is greater than or equal to 5%
Reply text: Y

Inquiry: # check: progeny production of CCc1cc(CCC(=O)Nc2ccccc2O)c(O)nc1C is greater than or equal to 5%
Reply text: N

Inquiry: # check: progeny production of OB1OCc2c1ccc(Cl)c2F is greater than or equal to 5%
Reply text: N

Inquiry: # check: progeny production of O=C(NCc1ccc(F)cc1)c1c(O)c2ncccc2[nH]c1=O is greater than or equal to 5%
Reply text: Y

Inquiry: # check: progeny production of COc1cccc(N2CCN(C3=Nc4c(F)cccc4[C@H](CC(=O)O)N3c3cc(C(F)(F)F)ccc3OC)CC2)c1 is greater than or equal to 5%
Reply text: Y

Inquiry: # check: progeny production of NC(=O)[C@@H]1CC[C@@H]2CN1C(=O)N2OS(=O)(=O)O is greater than or equal to 5%
Reply text: Y

Inquiry: # check: progeny production of C=C[C@]1(C)C[C@@H](OC(=O)CS[C@@H]2C[C@H]3CC[C@@H](C2)N3C)[C@]2(C)[C@H](C)CC[C@]3(CCC(=O)[C@H]32)[C@@H](C)[C@@H]1O is greater than or equal to 5%
Reply text: Y

Inquiry: # check: progeny production of CC(C)C(=O)N[C@H]1[C@H]([C@H](O)[C@H](O)CO)OC(C(=O)O)=C[C@@H]1N=[N+]=[N-] is greater than or equal to 5%
Reply text: Y

Inquiry: # check: progeny production of O=[N+]([O-])c1cn(Cc2nc(O)nc(O)c2Br)cn1 is greater than or equal to 5%
Reply text: Y

Inquiry: # check: progeny production of O=C(c1ccc(F)cc1)N1CCN2C(=O)c3ccccc3C12c1ccccc1 (centres undefined) is greater than or equal to 5%
Reply text: N

Inquiry: # check: progeny production of Oc1ccc(NCc2ccccc2OCc2ccccc2)cc1 is greater than or equal to 5%
Reply text: Y

Inquiry: # check: progeny production of CCOC(=O)/C=C/[C@H](C[C@@H]1CCNC1=O)NC(=O)[C@@H](CC(=O)[C@@H](NC(=O)c1cc(C)on1)C(C)C)Cc1ccc(F)cc1 is greater than or equal to 5%
Reply text: N

Inquiry: # check: progeny production of O=C(NO)C1(CS(=O)(=O)c2ccc(Oc3ccc(Cl)cc3)cc2)CCOCC1 is greater than or equal to 5%
Reply text: Y

Inquiry: # check: progeny production of Cc1ccc(Oc2ccccc2-c2csc(N=C3NCCCN3)n2)c(C)c1 is greater than or equal to 5%
Reply text: N

Inquiry: # check: progeny production of Nc1cnn(C2OC(CO)C(O)C2O)c(=O)n1 (centres undefined) is greater than or equal to 5%
Reply text: N

Inquiry: # check: progeny production of O=C(O)CSc1cc(NS(=O)(=O)c2cccc3cccnc23)c2ccccc2c1O is greater than or equal to 5%
Reply text: Y

Inquiry: # check: progeny production of O=C(N[C@H](Cc1cccc2ccccc12)C(=O)NCCc1c[nH]cn1)C1Cc2ccccc2C1 is greater than or equal to 5%
Reply text: Y

Inquiry: # check: progeny production of O=C(Nc1cccc(C2=NCCN2)c1)c1ccc(-c2ccc(C(=O)Nc3cccc(C4=NCCN4)c3)cc2)cc1 is greater than or equal to 5%
Reply text: Y

Inquiry: # check: progeny production of Nc1nc(Nc2ccc3nc(-c4ccc(F)cc4)cc(N)c3c2)cc(-c2ccccc2)n1 is greater than or equal to 5%
Reply text: N

Inquiry: # check: progeny production of CC[N+]1(C/C2=C/CCCCCC2)CCC(NC(=O)C2c3cc(Cl)ccc3Oc3ccc(Cl)cc32)CC1 (centres undefined) is greater than or equal to 5%
Reply text: N

Inquiry: # check: progeny production of NC(=O)c1cnccn1 is greater than or equal to 5%
Reply text: Y

Inquiry: # check: progeny production of O=C(CSc1nnc(Br)n1-c1ccc(C2CC2)c2ccccc12)Nc1ccc(C(=O)O)cc1Cl is greater than or equal to 5%
Reply text: N

Inquiry: # check: progeny production of CCNC(=O)Nc1cc(-c2ccccc2)c(-c2cncc(C(=O)O)c2)cn1 is greater than or equal to 5%
Reply text: N

Inquiry: # check: progeny production of COc1cc(Cc2cc(N)nc(N)n2)cc(OC)c1OC is greater than or equal to 5%
Reply text: Y

Inquiry: # check: progeny production of CN1CCN(c2ccc3[nH]c(-c4ccc5[nH]c(-c6ccc(O)cc6)nc5c4)nc3c2)CC1 is greater than or equal to 5%
Reply text: Y

Inquiry: # check: progeny production of NC(=O)C(c1ccccc1)(c1ccccc1)[C@H]1CCCN(CCc2ccc3c(c2)CCO3)C1 is greater than or equal to 5%
Reply text: Y

Inquiry: # check: progeny production of O=C1[C@H](CC[C@H](O)c2ccc(F)cc2)[C@@H](c2ccc(O)cc2)N1c1ccc(F)cc1 is greater than or equal to 5%
Reply text: Y

Inquiry: # check: progeny production of CCC(C)NCC(O)Cn1c2ccc(Cl)cc2c2cc(Cl)ccc21 (centres undefined) is greater than or equal to 5%
Reply text: Y

Inquiry: # check: progeny production of CC[C@@H]1C(=O)OC[C@@H]1Cc1cncn1C is greater than or equal to 5%
Reply text: N

Inquiry: # check: progeny production of CN(C)CCNC(=O)c1cccc2cccnc12 is greater than or equal to 5%
Reply text: Y

Inquiry: # check: progeny production of COC1CC2CCC(C)C(O)(O2)C(=O)C(=O)N2CCCCC2C(=O)OC(C(C)CC2CCC(OCCO)C(OC)C2)CC(=O)C(C)/C=C(\C)C(O)C(OC)C(=O)C(C)CC(C)/C=C/C=C/C=C/1C (centres undefined) is greater than or equal to 5%
Reply text: Y

Inquiry: # check: progeny production of Nc1nc2c(ncn2COC(CO)CO)c(=O)[nH]1 is greater than or equal to 5%
Reply text: Y

Inquiry: # check: progeny production of N=C(N)NCCCCC(=O)Nc1cc(C(F)(F)F)cc(NC(=O)c2cc(C(=O)Nc3cc(C(F)(F)F)cc(NC(=O)CCCCNC(=N)N)c3O[C@@H]3CCNC3)ncn2)c1O[C@@H]1CCNC1 is greater than or equal to 5%
Reply text: Y

Inquiry: # check: progeny production of C(=C\c1nc2ccccc2[nH]1)/c1ccc2c(c1)OCO2 is greater than or equal to 5%
Reply text: Y

Inquiry: # check: progeny production of O=[N+]([O-])c1cn2c(n1)OC[C@@H](OCc1ccc(OC(F)(F)F)cc1)C2 is greater than or equal to 5%
Reply text: Y

Inquiry: # check: progeny production of CN(C)c1[nH]c(=O)ncc1F is greater than or equal to 5%
Reply text: N

Inquiry: # check: progeny production of Cc1cc(Nc2ccc(F)cc2)nc(SCc2nc3ccccc3[nH]2)n1 is greater than or equal to 5%
Reply text: N

Inquiry: # check: progeny production of CSC[C@H]1CN(Cc2c[nH]c3c(N)ncnc23)C[C@@H]1O is greater than or equal to 5%
Reply text: Y
